The reported numbers originate from patent US10723708B2.

# Tested on: human cytomegalovirus (HCMV)
# protocol.description: Antiviral activity against HCMV, virus yield/replication assay in MRC5 cells
# Format: cell-based
# recorded.conditions: Human betaherpesvirus 5; infected human MRC5 cells; virus yield in supernatant at 96 hours / four days, read by IE protein expression in fresh MRC5 cells
pIC50: −log10 of the molar value.
We use 5 as the dividing line for pIC50: on or above the line is yes (1), below is no (0).

Completed entries (count: 3):
- CC(CC(=O)Nc1cccc2cccnc12)c1ccccc1Cl (stereo not drawn) [Example 22]: yes (1)
- COc1ccccc1C(C)C(F)CNc1cccc2cccnc12 (stereo not drawn) [Example 25]: yes (1)
- Cc1ccccc1C(C)CCNc1cccc2cccnc12 (stereo not drawn) [Example 23]: yes (1)

Query string: hey, is pIC50 for this one >= 5? CC(CNc1cccc2nccnc12)c1cc(Cl)ccc1Cl (stereo not drawn) [Example FLS-118]
Result string: yes (1)

Query string: hey, is pIC50 for this one >= 5? COc1ccccc1C(C)CC(=O)Nc1ccc2ncccc2c1 (stereo not drawn) [Example 14]
Result string: yes (1)

Query string: hey, is pIC50 for this one >= 5? CC(CC(=O)Nc1cnc2ccccc2c1)c1ccccc1Cl (stereo not drawn) [Example 6]
Result string: no (0)

---

# System: human cytomegalovirus (HCMV)
# protocol.description: Antiviral activity against HCMV, virus yield/replication assay in MRC5 cells
# Format: cell-based
# recorded.conditions: Human betaherpesvirus 5; infected human MRC5 cells; virus yield in supernatant at 96 hours / four days, read by IE protein expression in fresh MRC5 cells
Label 1 when IC50 is strictly below 3 µM; otherwise label -1.

Completed entries (count: 8):
• COc1ccccc1C(C)CC(=O)Nc1ccccc1 (stereo not shown) = -1
• COc1ccccc1C(C)CC(=O)Nc1cccc2nccnc12 (stereo not shown) = -1
• CC(CCNc1cccc2cccnc12)c1ccccc1 (stereo not shown) = -1
• CC(CCNc1cccc2cccnc12)c1ccccn1 (stereo not shown) = -1
• COc1ccccc1C(C)CCn1ccc2ccccc21 (stereo not shown) = -1
• COc1ccccc1C(C)CCNc1ccccc1 (stereo not shown) = -1
• CC(CCNc1cnc2ccccc2c1)c1ccccc1 (stereo not shown) = -1
• COc1ccc(Br)cc1C(C)CCNc1cccc2cccnc12 (stereo not shown) = -1

Query string: # check: IC50 < 3 µM for COc1ccccc1C(C)CCNc1cccc2[nH]ccc12 (stereo not shown)
Result string: 1

Query string: # check: IC50 < 3 µM for COc1ccccc1C(C)CCNc1cccc2cccnc12 (stereo not shown)
Result string: 1

Query string: # check: IC50 < 3 µM for CC(CNc1cccc2nccnc12)C(C)c1ccc(Cl)cc1Cl (stereo not shown)
Result string: -1

Query string: # check: IC50 < 3 µM for COc1cccc(C(C)CC(=O)Nc2cccc3cccnc23)c1 (stereo not shown)
Result string: -1

Query string: # check: IC50 < 3 µM for CC(CCNc1cccc2cccnc12)c1ccccc1Cl (stereo not shown)
Result string: 1

Query string: # check: IC50 < 3 µM for CC(CNc1cccc2nccnc12)c1cc(Cl)cc(Cl)c1 (stereo not shown)
Result string: 1

Query string: # check: IC50 < 3 µM for CCC(CCNc1cccc2cccnc12)c1ccccc1OC (stereo not shown)
Result string: 1

Query string: # check: IC50 < 3 µM for COc1ccc(C(C)CC(=O)Nc2cnc3ccccc3c2)cc1 (stereo not shown)
Result string: -1

Query string: # check: IC50 < 3 µM for COc1ccccc1C(C)C(C)CNc1cccc2cccnc12 (stereo not shown)
Result string: 1
